Target: human Adenosine A2b receptor (Homo sapiens (Human), UniProt P29275)
Sequence (P29275 whole entry): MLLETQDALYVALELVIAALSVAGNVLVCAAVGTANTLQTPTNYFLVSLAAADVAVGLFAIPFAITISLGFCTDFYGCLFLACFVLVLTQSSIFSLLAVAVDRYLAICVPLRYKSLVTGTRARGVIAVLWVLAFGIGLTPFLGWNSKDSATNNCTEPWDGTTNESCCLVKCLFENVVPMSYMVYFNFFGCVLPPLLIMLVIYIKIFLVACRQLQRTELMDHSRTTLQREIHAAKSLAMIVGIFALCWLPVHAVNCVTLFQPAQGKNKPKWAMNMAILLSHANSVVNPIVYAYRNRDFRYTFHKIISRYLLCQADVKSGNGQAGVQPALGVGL
Assay: Adenosine receptor TR-FRET binding assay (A2b)
Conditions: TR-FRET, inhibition of binding of 30 nM CA200645, CHO cell membranes
pKi: −log10 of the molar value.
Listed below: pKi values for each entry.

smiles.structure	pKi
COCc1cc(-c2sc(NC(=O)N3CC4(COC4)C3)nc2-c2cccc(C#N)c2)cc(C)n1	8.41
COC1(C#N)CCN(C(=O)Nc2nc(-c3cccc(C#N)c3)c(-c3cc(C)nc(CO)c3)s2)CC1	8.51
Cc1cc(-c2sc(NC(=O)N3CCC4(CC3)NC(=O)NC4=O)nc2-c2cccc(C#N)c2)cc(C)n1	8.59
Cc1cc(-c2sc(NC(=O)N3CCC4(CCNC4=O)CC3)nc2-c2cccc(C#N)c2)cc(C)n1	8.60
Cc1cc(-c2sc(NC(=O)N3CC4(COC4)C3)nc2-c2cccc(C#N)c2)cc(C(F)F)n1	8.96
Cc1cc(-c2sc(NC(=O)N3CCC4(CC3)C(=O)N(C)C(=O)N4C)nc2-c2cccc(C#N)c2)cc(C)n1	8.62
CC(=O)Nc1cc(-c2sc(NC(=O)N3CC4(COC4)C3)nc2-c2cccc(C#N)c2)cc(C)n1	8.10

====

Test system: human PBMCs
Test: CD3/CD28 stimulated IL-2 release NECA reversal assay in human PBMCs
Type: cell-based
Details: PBMC, 1 uM NECA, 24 hours, IL-2 in culture supernatant
pIC50: −log10 of the molar value.
Mark label 1 for reported pIC50 of 8 or greater; mark label 0 for anything smaller.

molecule	target.or.system	label
Cc1cc(-c2sc(NC(=O)N3CCC4(CCC(=O)NC4)CC3)nc2-c2cccc(C#N)c2)cc(C)n1	human PBMCs	label 1
Cc1cc(-c2sc(NC(=O)N3CCN4CCOCC4C3)nc2-c2cccc(C#N)c2)cc(C)n1 (centres unmarked)	human PBMCs	label 1
Cc1cc(-c2sc(NC(=O)N3CCC(C)(N)CC3)nc2-c2cccc(C#N)c2)cc(Cl)n1	human PBMCs	label 0
Cc1cc(-c2sc(NC(=O)N3CCC(C#N)(C(C)(C)O)CC3)nc2-c2cccc(C#N)c2)cc(C)n1	human PBMCs	label 1
Cc1cc(-c2sc(NC(=O)N3CCC4(CC3)CNC(=O)C4)nc2-c2cccc(C#N)c2)cc(C)n1	human PBMCs	label 1
Cc1cc(-c2sc(NC(=O)N3CCN4C(=O)OCCC4C3)nc2-c2cccc(C#N)c2)cc(C)n1 (centres unmarked)	human PBMCs	label 1

====

A short record of Ki observed with human Adenosine A3 receptor (Homo sapiens (Human), UniProt P0DMS8) follows.
Sequence (P0DMS8 whole entry): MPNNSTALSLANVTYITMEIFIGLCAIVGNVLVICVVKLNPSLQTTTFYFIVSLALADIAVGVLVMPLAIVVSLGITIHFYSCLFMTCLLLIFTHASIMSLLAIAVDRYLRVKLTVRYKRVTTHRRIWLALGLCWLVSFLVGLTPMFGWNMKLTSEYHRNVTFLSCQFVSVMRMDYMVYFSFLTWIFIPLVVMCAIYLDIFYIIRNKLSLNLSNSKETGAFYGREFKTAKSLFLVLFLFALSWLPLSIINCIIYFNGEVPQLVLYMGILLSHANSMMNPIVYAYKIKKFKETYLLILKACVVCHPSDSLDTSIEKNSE

molecule	Ki, µM
Cc1cc(-c2sc(NC(=O)N3CC4(COC4)C3)nc2-c2cccc(C#N)c2)cc(C(F)(F)F)n1 [Example 6.99]	0.077
Cc1cc(-c2sc(NC(=O)N3CC[C@@H](S(C)(=O)=O)C3)nc2-c2cccc(C#N)c2)cc(C)n1 [Example 6.9]	0.412
Cc1cc(-c2sc(NC(=O)N3CCN(C4COC4)CC3)nc2-c2cccc(C#N)c2)cc(C(F)(F)F)n1 [Example 6.61]	0.057
Cc1cc(-c2sc(NC(=O)N3CCC4(CC3)CC(=O)N(C)C4)nc2-c2cccc(C#N)c2)cc(C)n1 [Example 6.38]	0.278
Cc1cc(-c2sc(NC(=O)N3CCC(C)(C#N)CC3)nc2-c2cccc(C#N)c2)cc(Cl)n1 [Example 3.8]	0.538
CN=S1(=O)CCN(C(=O)Nc2nc(-c3cccc(C#N)c3)c(-c3cc(C)nc(C)c3)s2)CC1 [Example 6.32]	0.719
N#Cc1cccc(-c2nc(NC(=O)N3CC4(COC4)C3)sc2-c2cc(Cl)nc(Cl)c2)c1 [Example 16.10]	0.254
Cc1cc(-c2sc(NC(=O)N3CCC4(CC3)CNC(=O)C4)nc2-c2cccc(C#N)c2)cc(C)n1 [Example 6.4]	0.36
Cc1cc(-c2sc(NC(=O)N3CC4(CCOC(=O)N4)C3)nc2-c2cccc(C#N)c2)cc(C)n1 [Example 6.34]	0.166
Cc1cc(-c2sc(NC(=O)N3CCC(C#N)(C#N)CC3)nc2-c2cccc(C#N)c2)cc(C)n1 [Example 4.32]	0.457
Cc1cc(-c2sc(NC(=O)N3C[C@@H]4NCCO[C@@H]4C3)nc2-c2cccc(C#N)c2)cc(C(F)F)n1 (racemic) [Example 14.2]	0.132
Cc1cc(-c2sc(NC(=O)N3CCC4(CCNC(=O)C4)CC3)nc2-c2cccc(C#N)c2)cc(C)n1 [Example 6.26]	0.302
Cc1cc(-c2sc(NC(=O)N3CC4(C3)CS(=O)(=O)C4)nc2-c2cccc(C#N)c2)cc(C)n1 [Example 6.46]	0.235
Cc1cc(-c2sc(NC(=O)N3CCC4(CC3)COC4)nc2-c2cccc(C#N)c2)cc(C)n1 [Example 6.10]	0.316
Cc1cc(-c2sc(NC(=O)N3CC[C@@H](C(=O)O)C3)nc2-c2cccc(C#N)c2)cc(C)n1 [Example 6.65]	0.295
Cc1cc(-c2sc(NC(=O)N3CCC(F)(C#N)CC3)nc2-c2cccc(C#N)c2)cc(C)n1 [Example 4.7]	0.125
Cc1cc(-c2sc(NC(=O)N3CCN(C4COC4)CC3)nc2-c2cccc(C#N)c2)cc(CO)n1 [Example 9.4]	1.54
Cc1cc(-c2sc(NC(=O)N3CCn4ccnc4C3)nc2-c2cccc(C#N)c2)cc(C)n1 [Example 6.27]	0.151
Cc1cc(-c2sc(NC(=O)N3CCC4(CCC(=O)NC4)CC3)nc2-c2cccc(C#N)c2)cc(C)n1 [Example 6.40]	0.33
Cc1cc(-c2sc(NC(=O)N3CCN(S(C)(=O)=O)CC3)nc2-c2cccc(C#N)c2)cc(C)n1 [Example 4.18]	0.414
Cc1cc(-c2sc(NC(=O)N3CCC4(COCCN4)C3)nc2-c2cccc(C#N)c2)cc(C)n1 (stereo not drawn) [Example 13.9]	0.646
CC(C)(O)c1cc(-c2sc(NC(=O)N3CC4(COC4)C3)nc2-c2cccc(C#N)c2)cc(Cl)n1 [Example 23]	1.84
Cc1cc(-c2sc(NC(=O)N3CCC(N)(C#N)CC3)nc2-c2cccc(C#N)c2)cc(C)n1 [Example 7.2]	0.337
COC(=O)[C@H]1CN(C(=O)Nc2nc(-c3cccc(C#N)c3)c(-c3cc(C)nc(Cl)c3)s2)CCN1 [Example 5.1]	0.229
Cc1cc(-c2sc(NC(=O)N3CCC(C(=O)NCCO)CC3)nc2-c2cccc(C#N)c2)cc(C)n1 [Example 6.33]	0.268
Cc1cc(-c2sc(NC(=O)N3CC4(CCOC4)C3)nc2-c2cccc(C#N)c2)cc(C(C)(C)O)n1 [Example 12.1]	1.24
Cc1cc(-c2sc(NC(=O)N3CC4(CCNC4=O)C3)nc2-c2cccc(C#N)c2)cc(C)n1 [Example 6.59]	0.184
Cc1cc(-c2sc(NC(=O)N3CCC4(CC3)CN(C)C(=O)N4)nc2-c2cccc(C#N)c2)cc(C)n1 [Example 6.103]	0.475
Cc1cc(-c2sc(NC(=O)N3CC4CC(C3)N4)nc2-c2cccc(C#N)c2)cc(C)n1 [Example 13.7]	0.256
CC(=O)N1CCN(C(=O)Nc2nc(-c3cccc(C#N)c3)c(-c3cc(C)nc(C)c3)s2)CC1 [Example 4.17]	0.293
